target: CDK4/Cyclin D1 (Homo sapiens (Human), UniProt P11802); test: CDK4 filtration kinase assay; settings: CDK4/Cyclin D1, Rb fragment substrate, [33P]-ATP filtration assay
Sequence (P11802 whole entry, the tested form may be a part): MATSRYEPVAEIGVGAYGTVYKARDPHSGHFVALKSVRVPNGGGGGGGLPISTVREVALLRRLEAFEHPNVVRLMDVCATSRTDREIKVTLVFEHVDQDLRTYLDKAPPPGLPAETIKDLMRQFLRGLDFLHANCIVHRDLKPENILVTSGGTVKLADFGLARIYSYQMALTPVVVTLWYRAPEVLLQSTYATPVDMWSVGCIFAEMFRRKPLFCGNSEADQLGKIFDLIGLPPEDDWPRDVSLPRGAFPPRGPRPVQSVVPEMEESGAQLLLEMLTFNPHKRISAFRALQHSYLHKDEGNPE
Sequence (P24385 whole entry partner, the tested form may be a part): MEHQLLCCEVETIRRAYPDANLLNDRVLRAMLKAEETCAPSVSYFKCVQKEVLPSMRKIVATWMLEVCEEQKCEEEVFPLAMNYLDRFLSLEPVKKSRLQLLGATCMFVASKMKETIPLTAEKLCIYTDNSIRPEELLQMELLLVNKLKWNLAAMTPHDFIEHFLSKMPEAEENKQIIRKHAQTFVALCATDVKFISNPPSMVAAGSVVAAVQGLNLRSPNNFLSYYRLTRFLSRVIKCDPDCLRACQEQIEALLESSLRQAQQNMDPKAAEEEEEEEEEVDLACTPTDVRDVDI
metric: IC50 (nM)

1) C[C@H]1CC[C@H](n2c3cnccc3c3cnc(Nc4ccc5c(n4)CCN(CCF)C5)nc32)CC1 : 72.8

a. C[C@H]1CC[C@H](n2c3cnccc3c3cnc(Nc4ccc5c(n4)CCNC5)nc32)CC1
b. CC(C)(C)OC(=O)N1CCc2cc(Nc3ncc4c5ccncc5n([C@H]5CC[C@H](C)CC5)c4n3)ncc2C1
Returns: the argument ( a or b ) having the larger IC50. Choose, then provide that item's label.
b

###

Biological target: CDK4/Cyclin D1 (Homo sapiens (Human))
Experiment: CDK4 filtration kinase assay
Conditions: CDK4/Cyclin D1, Rb fragment substrate, [33P]-ATP filtration assay
Protocol: The CDK4 and CDK1 inhibitory activity of the CDK4/6-FLT3 inhibitors was determined with a filtration kinase assay. […] The plates were dried at room temperature, and the retained radioactivity was measured by scintillation counting. IC50 values of the compounds in the above assays were determined by non-linear regression analysis using Prism (GraphPad Software).
metric: IC50 (µM)

1) C[C@H](O)C(=O)N1CCc2nc(Nc3ncc4c5ccncc5n([C@H]5CC[C@H](C)CC5)c4n3)ccc2C1 : 0.012

A. C[C@H]1CC[C@H](n2c3cnccc3c3cnc(Nc4ccc5c(n4)CCN(C(=O)C(=O)O)C5)nc32)CC1
B. C[C@H]1CC[C@H](n2c3cnccc3c3cnc(Nc4ccc5c(n4)CNCC5)nc32)CC1
C. C[C@H]1CC[C@H](n2c3cnccc3c3cnc(Nc4ccc5c(n4)CCN(CCCO)C5)nc32)CC1
Falling order of IC50, please. To answer, write out the labels according to the requested order.
A, B, C

###

Target: FLT3 enzyme (GST-FLT3 fusion) (Homo sapiens (Human), UniProt P36888)
Sequence (P36888 27-993): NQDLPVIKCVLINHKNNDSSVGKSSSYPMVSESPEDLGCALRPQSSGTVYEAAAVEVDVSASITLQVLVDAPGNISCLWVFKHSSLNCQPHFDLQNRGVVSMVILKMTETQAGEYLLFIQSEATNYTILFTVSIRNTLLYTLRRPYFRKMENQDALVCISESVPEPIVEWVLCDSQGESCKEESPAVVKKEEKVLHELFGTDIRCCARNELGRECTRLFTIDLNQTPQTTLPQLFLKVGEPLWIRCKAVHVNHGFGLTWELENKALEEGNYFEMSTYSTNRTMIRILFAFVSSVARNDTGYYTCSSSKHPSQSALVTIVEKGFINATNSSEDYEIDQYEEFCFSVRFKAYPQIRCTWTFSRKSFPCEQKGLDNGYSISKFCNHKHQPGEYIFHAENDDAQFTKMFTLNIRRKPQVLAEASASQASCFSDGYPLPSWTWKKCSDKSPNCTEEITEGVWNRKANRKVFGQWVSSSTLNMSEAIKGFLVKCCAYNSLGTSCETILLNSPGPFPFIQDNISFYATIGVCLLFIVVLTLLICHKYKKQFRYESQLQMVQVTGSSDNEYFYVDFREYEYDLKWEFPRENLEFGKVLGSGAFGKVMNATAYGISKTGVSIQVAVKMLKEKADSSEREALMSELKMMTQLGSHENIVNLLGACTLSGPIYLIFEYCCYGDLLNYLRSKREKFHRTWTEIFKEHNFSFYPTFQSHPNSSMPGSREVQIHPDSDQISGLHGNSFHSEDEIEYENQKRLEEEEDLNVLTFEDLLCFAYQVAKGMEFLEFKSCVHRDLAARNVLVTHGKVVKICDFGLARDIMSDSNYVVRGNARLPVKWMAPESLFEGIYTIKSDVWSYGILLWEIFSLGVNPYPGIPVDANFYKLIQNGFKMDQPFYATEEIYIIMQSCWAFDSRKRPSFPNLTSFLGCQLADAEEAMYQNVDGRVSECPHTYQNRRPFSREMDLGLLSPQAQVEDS
Assay: FLT3 HTRF kinase assay
Conditions: 116 μM ATP
Protocol: The FLT3 inhibitory activity of the CDK4/6-FLT3 inhibitors was determined with a HTRF kinase assay. The FLT3 enzyme (GST-FLT3 fusion) was purchased from Carna Biosciences. […] The plates were incubated at room temperature for 2 hours after addition of detection reagents and then read on an Envision multimode reader (PerkinElmer). IC50 values of the compounds in the above assays were determined by non-linear regression analysis using Prism (GraphPad Software).
metric: IC50 (nM)

# example entries with known answers
1) C[C@H]1CC[C@H](n2c3cnccc3c3cnc(Nc4ccc5c(n4)CCN(C(=O)C(=O)O)C5)nc32)CC1 : 3.3
2) C[C@H]1CC[C@H](n2c3cnccc3c3cnc(Nc4ccc5c(n4)CCN(CCF)C5)nc32)CC1 : 3.4

A. C[C@H]1CC[C@H](n2c3cnccc3c3cnc(Nc4ccc5c(n4)C(O)CNC5)nc32)CC1 (stereo partly shown)
B. COc1cc2c3cnc(Nc4ccc5c(n4)CCN(C(=O)CO)C5)nc3n([C@H]3CC[C@H](C)CC3)c2cn1
Hi, I'm comparing A with B and wondering which one has the bigger number for IC50. Any idea? The response must carry the label of the picked entry.
B
(B: 144 nM, A: 1.4 nM)
